# systemUnderTest: BMX/ETK (Homo sapiens)
# Sequence (P51813 1-675): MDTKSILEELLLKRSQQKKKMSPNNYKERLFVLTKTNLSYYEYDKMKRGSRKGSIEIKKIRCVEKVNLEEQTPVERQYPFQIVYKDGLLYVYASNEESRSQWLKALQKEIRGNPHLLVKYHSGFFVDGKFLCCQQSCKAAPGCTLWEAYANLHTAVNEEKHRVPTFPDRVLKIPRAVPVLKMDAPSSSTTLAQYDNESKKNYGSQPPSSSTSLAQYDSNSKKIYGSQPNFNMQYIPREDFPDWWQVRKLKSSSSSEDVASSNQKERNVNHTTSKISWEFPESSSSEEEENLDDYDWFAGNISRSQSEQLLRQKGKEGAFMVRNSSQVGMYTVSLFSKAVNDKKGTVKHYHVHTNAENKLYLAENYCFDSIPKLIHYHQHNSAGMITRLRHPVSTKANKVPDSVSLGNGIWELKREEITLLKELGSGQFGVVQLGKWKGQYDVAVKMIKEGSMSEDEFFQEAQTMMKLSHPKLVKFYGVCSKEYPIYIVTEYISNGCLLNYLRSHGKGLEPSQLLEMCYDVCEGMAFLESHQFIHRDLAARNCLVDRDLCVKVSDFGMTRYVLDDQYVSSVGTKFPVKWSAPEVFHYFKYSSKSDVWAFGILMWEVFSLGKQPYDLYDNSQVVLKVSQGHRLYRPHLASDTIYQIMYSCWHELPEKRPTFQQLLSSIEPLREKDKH
# testDetails: Kinase panel IC50, BMX/ETK
pIC50: −log10 of the molar value.
attributeMeasured: pIC50

Prompt line: API: value(readout=pIC50, system=BMX/ETK (Homo sapiens)) for record CCN(CC)CCCC(C)Nc1nc(/C=C/c2c(Cl)cc(Cl)cc2Cl)nc2ccc(N)cc12 (stereo not shown) [Compound 6]
Response line: ~6.00

###

# systemUnderTest: MELK (Homo sapiens, UniProt Q14680)
# Sequence (Q14680 whole entry): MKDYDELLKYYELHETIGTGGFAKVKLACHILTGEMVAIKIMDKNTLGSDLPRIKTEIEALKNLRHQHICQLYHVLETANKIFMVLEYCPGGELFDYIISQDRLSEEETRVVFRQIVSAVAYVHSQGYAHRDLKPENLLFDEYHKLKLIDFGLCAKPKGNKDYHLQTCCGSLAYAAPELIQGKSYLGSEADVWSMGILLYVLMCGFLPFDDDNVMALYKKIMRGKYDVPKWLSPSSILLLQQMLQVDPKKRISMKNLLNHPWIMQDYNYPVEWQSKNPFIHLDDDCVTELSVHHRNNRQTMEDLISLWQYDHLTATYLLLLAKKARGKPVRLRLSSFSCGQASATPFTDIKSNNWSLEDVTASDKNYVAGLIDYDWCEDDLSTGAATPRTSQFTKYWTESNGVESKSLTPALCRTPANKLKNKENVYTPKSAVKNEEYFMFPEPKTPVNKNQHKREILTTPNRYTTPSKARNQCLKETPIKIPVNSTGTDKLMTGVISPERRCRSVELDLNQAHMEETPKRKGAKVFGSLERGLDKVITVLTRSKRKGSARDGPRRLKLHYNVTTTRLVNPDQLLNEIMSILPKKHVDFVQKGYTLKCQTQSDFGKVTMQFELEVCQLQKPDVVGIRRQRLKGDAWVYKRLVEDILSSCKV
attributeMeasured: IC50

Prompt line: Item: CCN(CC)CCCC(C)Nc1nc(/C=C/c2c(Cl)cc(Cl)cc2Cl)nc2ccc(N)cc12 (stereo not shown) Test system: MELK (Homo sapiens, UniProt Q14680) Read-out: IC50 Value: ?
Response line: ~1000 nM
